System: WPMY1-ACTB-RAB5A
Test Method Notes: phenotypically active (imaging signature differs from DMSO and reproducible) at any of 0.3-9 uM (binary (1 = active, 0 = inactive)); higher = active
Experimental Parameters: treatment time: 24 h
Structures can show the parent of a compound that is named as a salt.
Attribute Measured: phenotypically active
Lab note: jot the number down without any unit.

{"columns": ["Molecule", "Tgt", "Result"],
 "data": [
  ["Cc1ccnn1-c1ccc(C(=O)N2CCN(S(=O)(=O)c3ccc(Cl)c(C(F)(F)F)c3)CC2)cc1", "WPMY1-ACTB-RAB5A", 0]
]}

Q: Fetch value of phenotypically active on WPMY1-ACTB-RAB5A for Cc1cccc(CCN2CCC(C(=O)c3ccc(NS(C)(=O)=O)cc3)CC2)n1 .
A: 0

Q: Specify phenotypically active for Nc1nc(OCC2CCCCC2)c2nc[nH]c2n1 , system WPMY1-ACTB-RAB5A.
A: 0

Q: Fetch value of phenotypically active on WPMY1-ACTB-RAB5A for NCCC(=O)NCCc1c[nH]cn1 .
A: 0

Q: Name the recorded phenotypically active of CC(C)(C)NC[C@H](O)c1ccc(O)c(CO)c1 , assay system WPMY1-ACTB-RAB5A.
A: 0

Q: Enter phenotypically active (test system WPMY1-ACTB-RAB5A) for O=C(NC(CO)C(O)c1ccc([N+](=O)[O-])cc1)C(Cl)Cl (centres undefined)
A: 0

Q: Recall the reported phenotypically active of CCN(CC)CCOC(=O)C1(C2CCCCC2)CCCCC1 when tested on WPMY1-ACTB-RAB5A.
A: 0

Q: Identify measured phenotypically active obtained with WPMY1-ACTB-RAB5A for COc1ccc2cc1Oc1ccc(cc1)C[C@H]1c3cc(c(OC)cc3CCN1C)Oc1c(OC)c(OC)cc3c1[C@H](C2)N(C)CC3 .
A: 1

Q: Return reported phenotypically active for target or system WPMY1-ACTB-RAB5A, item O=C(O)[C@H](Cc1c[nH]c2ccccc12)N1C(=O)c2ccccc2C1=O .
A: 0

Q: # lookup: WPMY1-ACTB-RAB5A phenotypically active, key = CCOc1ccc2nc(S(N)(=O)=O)sc2c1 [ethoxzolamide]
A: 0

Q: Report value only: phenotypically active, WPMY1-ACTB-RAB5A, C=C[C@H]1CN2CC[C@H]1C[C@@H]2[C@@H](O)c1ccnc2ccc(OC)cc12 [Quinidine hydrochloride monohydrate]
A: 0

Q: Report phenotypically active on WPMY1-ACTB-RAB5A for this entry: CN([C@H]1c2cc(OCCCC(F)(F)F)ccc2OC(C)(C)[C@@H]1O)S(C)(=O)=O
A: 0

Q: Send back WPMY1-ACTB-RAB5A phenotypically active of CCCc1nc2c(C)cc(-c3nc4ccccc4n3C)cc2n1Cc1ccc(-c2ccccc2C(=O)O)cc1 only.
A: 0

Q: Write down the reported phenotypically active (system: WPMY1-ACTB-RAB5A) of CC(C)OC(=O)c1cc2c(OCC(O)CNC(C)(C)C)cccc2[nH]1 (centres undefined)
A: 1

Q: Give the observed phenotypically active of c1cc(-c2cc(C3CCNCC3)[nH]n2)ccn1 for WPMY1-ACTB-RAB5A.
A: 1

Q: Give phenotypically active only, for O=C(c1ccc(C(=O)N2CCC(N3CCCC3)CC2)c(Nc2ccccc2)c1)N1CCC(N2CCCC2)CC1 , using WPMY1-ACTB-RAB5A data.
A: 0

Q: Specify phenotypically active for CC(C)c1c(C(=O)Nc2ccccc2)c(-c2ccccc2)c(-c2ccc(F)cc2)n1CC[C@@H](O)C[C@@H](O)CC(=O)O , system WPMY1-ACTB-RAB5A.
A: 1

Q: # return phenotypically active of Cc1ccc(C(=O)c2cc(O)c(O)c([N+](=O)[O-])c2)cc1 (system: WPMY1-ACTB-RAB5A)
A: 0

Q: // fetch phenotypically active for O=C(CCCCCCC(=O)Nc1cccnc1)NO [Pyroxamide] ; system: WPMY1-ACTB-RAB5A
A: 1
